- Tested target: T1, human FcγRI (human, UniProt P12314 16-288)
- T1 construct: Bought protein, construct not described
- T1 sequence (P12314 16-288 limits assumed): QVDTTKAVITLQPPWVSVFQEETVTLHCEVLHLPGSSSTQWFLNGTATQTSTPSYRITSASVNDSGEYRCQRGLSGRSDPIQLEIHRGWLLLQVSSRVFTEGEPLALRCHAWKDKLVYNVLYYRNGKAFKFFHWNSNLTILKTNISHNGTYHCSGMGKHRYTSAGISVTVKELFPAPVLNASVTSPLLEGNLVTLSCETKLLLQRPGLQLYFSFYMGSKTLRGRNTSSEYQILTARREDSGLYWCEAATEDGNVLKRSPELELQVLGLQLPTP
- Method description: ELISA, receptor coated on plate
- Experimental: ELISAs were used to investigate the binding of oligomeric Fc mutants to FcγRI, FcγRIIA, FcγRIIB, FcγRIIIA and FcγRIIIB (all from R&D laboratories). Receptors were coated down to ELISA plates (Nunc) in carbonate buffer pH9 (Sigma-Aldrich) at 2 μg/ml overnight at 4° C. Plates were then blocked in PBS/0.1% Tween-20 (PBST) containing 4% skimmed milk (Tesco). […] Plates were read at 405 nm and data plotted with Graphpad prism.
Measured quantity: binding result

D221N mutant of hexa-Fc (Fc fusion, N-linked glycans at Asn221 (N1), Asn297 (N77) and Asn563 (N236), Made on the hexa-Fc template in CHO-K1 cells; multimeric, hyper-sialylated) NKTHTCPPCPAPELLGGPSVFLFPPKPKDTLMISRTPEVTCVVVDVSHEDPEVKFNWYVDGVEVHNAKTKPREEQYNSTYRVVSVLTVCLQDWLNGKEYKCKVSNKALPAPIEKTISKAKGQPREPQVYTLPPSREEMTKNQVSLTCLVKGFYPSDIAVEWESNGQPENNYKTTPPVLDSDGSFFLYSKLTVDKSRWQQGNVFSCSVMHEALHNHYTQKSLSLSPGKLVLGPPLYNVSLVMSDTAGTCY :: no binding
D221N/N297A mutant of hexa-Fc (Fc fusion, N-linked glycans at Asn221 (N1) and Asn563 (N236), Made on the hexa-Fc template in CHO-K1 cells; multimeric) NKTHTCPPCPAPELLGGPSVFLFPPKPKDTLMISRTPEVTCVVVDVSHEDPEVKFNWYVDGVEVHNAKTKPREEQYASTYRVVSVLTVCLQDWLNGKEYKCKVSNKALPAPIEKTISKAKGQPREPQVYTLPPSREEMTKNQVSLTCLVKGFYPSDIAVEWESNGQPENNYKTTPPVLDSDGSFFLYSKLTVDKSRWQQGNVFSCSVMHEALHNHYTQKSLSLSPGKLVLGPPLYNVSLVMSDTAGTCY :: no binding
N297A mutant of hexa-Fc (Fc fusion, N-linked glycan at Asn563 (N236), Made on the hexa-Fc template in CHO-K1 cells; still multimeric (pentamers and hexamers)) DKTHTCPPCPAPELLGGPSVFLFPPKPKDTLMISRTPEVTCVVVDVSHEDPEVKFNWYVDGVEVHNAKTKPREEQYASTYRVVSVLTVCLQDWLNGKEYKCKVSNKALPAPIEKTISKAKGQPREPQVYTLPPSREEMTKNQVSLTCLVKGFYPSDIAVEWESNGQPENNYKTTPPVLDSDGSFFLYSKLTVDKSRWQQGNVFSCSVMHEALHNHYTQKSLSLSPGKLVLGPPLYNVSLVMSDTAGTCY :: no binding
D221N/N563A mutant of hexa-Fc (Fc fusion, N-linked glycans at Asn221 (N1) and Asn297 (N77), Made on the hexa-Fc template in CHO-K1 cells; runs as higher order multimers approximating dodecamers; also called D221/N563A; D221N/N563A dodecamer) NKTHTCPPCPAPELLGGPSVFLFPPKPKDTLMISRTPEVTCVVVDVSHEDPEVKFNWYVDGVEVHNAKTKPREEQYNSTYRVVSVLTVCLQDWLNGKEYKCKVSNKALPAPIEKTISKAKGQPREPQVYTLPPSREEMTKNQVSLTCLVKGFYPSDIAVEWESNGQPENNYKTTPPVLDSDGSFFLYSKLTVDKSRWQQGNVFSCSVMHEALHNHYTQKSLSLSPGKLVLGPPLYAVSLVMSDTAGTCY :: binds
